Target: Sphingosine 1-phosphate receptor 3 (Homo sapiens) (UniProt Q99500)
Sequence (Q99500 whole entry, looked up): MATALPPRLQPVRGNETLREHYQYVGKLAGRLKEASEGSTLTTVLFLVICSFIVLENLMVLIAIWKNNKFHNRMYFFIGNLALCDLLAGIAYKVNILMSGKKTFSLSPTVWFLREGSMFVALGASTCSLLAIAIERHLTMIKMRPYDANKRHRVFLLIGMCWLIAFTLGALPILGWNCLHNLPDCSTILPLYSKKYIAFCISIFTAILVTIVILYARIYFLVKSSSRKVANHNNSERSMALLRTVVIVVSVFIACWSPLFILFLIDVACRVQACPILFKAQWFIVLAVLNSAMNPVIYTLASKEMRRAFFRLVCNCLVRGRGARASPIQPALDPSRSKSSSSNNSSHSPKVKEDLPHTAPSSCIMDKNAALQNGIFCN
Experiment: S1P3 receptor antagonists, primary screen, cell-based (AID 485);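 note: cells challenged with S1P at its EC80 of 0.8 µM; blue over green emission ratio from cleaved BLA substrate after 4 h stimulation; 0% = S1P-stimulated wells and 100% = unstimulated DMSO-only wells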
Settings: CHO S1P3 NFAT-BLA reporter, FRET fluorescence, antagonist mode; at 4.98 µM; hits give high values
About 460 (0.27%) of roughly 170,000 compounds were called active. The full list was thinned out, with actives kept by preference.
Overview of recorded inhibition for various compounds
MEASURED PROPERTY: inhibition (%)

COMPOUND | RESULT VALUE
COc1ccc(C)cc1NC(=O)C(OC(=O)c1cccc(S(=O)(=O)N(C)c2ccccc2)c1)c1ccccc1 (stereo not given) | -3.14
O=C(NCc1ccco1)C1CCCN1S(=O)(=O)c1ccccc1C(F)(F)F (stereo not given) | 5.85
CN(c1ccccc1)S(=O)(=O)c1ccc(Cl)c(C(=O)OCC(N)=O)c1 | -15.6
O=C(NNS(=O)(=O)Cc1ccccc1)c1ccc([N+](=O)[O-])cc1 | -6.72
CC(C)Cc1nnc(NC(=O)CCC(=O)Nc2ccc3cn[nH]c3c2)s1 | -0.32

###

Biological target: Sphingosine 1-phosphate receptor 3 (Homo sapiens) (UniProt Q99500)
Experiment: S1P3 receptor antagonists, primary screen, cell-based (AID 485);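 note: cells challenged with S1P at its EC80 of 0.8 µM; blue over green emission ratio from cleaved BLA substrate after 4 h stimulation; 0% = S1P-stimulated wells and 100% = unstimulated DMSO-only wells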
Settings: CHO S1P3 NFAT-BLA reporter, FRET fluorescence, antagonist mode; at 4.98 µM; hits give high values
In all, about 170,000 compounds went through this assay and about 460 (0.27%) were called active. The entries come from a sample that favours actives as a whole.
Overview of recorded inhibition for various compounds
MEASURED PROPERTY: inhibition (%)

COMPOUND | TARGET ENTITY | MEASURED PROPERTY | RESULT VALUE
CSc1ccc(CN(C)CC(=O)NCc2ccc(F)cc2)cc1 | Sphingosine 1-phosphate receptor 3 (Homo sapiens) (UniProt Q99500) | inhibition | 30.2
O=C(Nc1ccccc1Cl)/C(Cl)=C(\Cl)S(=O)c1ccccc1 (stereo not drawn) | Sphingosine 1-phosphate receptor 3 (Homo sapiens) (UniProt Q99500) | inhibition | 40.8
CCc1ccc(Nc2nnc(SCC(=O)c3ccc4c(c3)NC(=O)CO4)s2)cc1 | Sphingosine 1-phosphate receptor 3 (Homo sapiens) (UniProt Q99500) | inhibition | -5.18
O=S(=O)([N-]c1nc2ccccc2nc1-[n+]1ccc(Cc2ccccc2)cc1)c1ccc(Br)s1 | Sphingosine 1-phosphate receptor 3 (Homo sapiens) (UniProt Q99500) | inhibition | 0.71
CCC(CC)c1nnc(NC(=O)c2nn(C)c(=O)c3ccccc23)s1 | Sphingosine 1-phosphate receptor 3 (Homo sapiens) (UniProt Q99500) | inhibition | -16.1
COc1ccc(CS(=O)/C(Cl)=C(/Cl)C(=O)Nc2ccc(OC)nc2)cc1 (stereo not drawn) | Sphingosine 1-phosphate receptor 3 (Homo sapiens) (UniProt Q99500) | inhibition | 56.4
COC(=O)N(NC(=O)C(O)(C(C)C)C(C)C)c1ccccc1 | Sphingosine 1-phosphate receptor 3 (Homo sapiens) (UniProt Q99500) | inhibition | 11
Cn1cccc1-c1nc2ccccc2n1C | Sphingosine 1-phosphate receptor 3 (Homo sapiens) (UniProt Q99500) | inhibition | -6.38
CNC(=O)Nc1cc(C(C)(C)C)no1 | Sphingosine 1-phosphate receptor 3 (Homo sapiens) (UniProt Q99500) | inhibition | 92.8
C[C@@H](NC(=O)OC(C)(C)C)c1nnc(S(=O)(=O)Cc2ccccc2)o1 | Sphingosine 1-phosphate receptor 3 (Homo sapiens) (UniProt Q99500) | inhibition | -3.71
Cc1nc2cc(NC(=O)NC3CC3)ccc2n1C | Sphingosine 1-phosphate receptor 3 (Homo sapiens) (UniProt Q99500) | inhibition | -13.8
O=C(CSc1nc2ccccc2[nH]1)c1cccs1 | Sphingosine 1-phosphate receptor 3 (Homo sapiens) (UniProt Q99500) | inhibition | -5
CCN1/C(=C\c2ccc3ccccc3[n+]2CC)Sc2cc(C)ccc21 | Sphingosine 1-phosphate receptor 3 (Homo sapiens) (UniProt Q99500) | inhibition | 31.2
O=C(N/N=C/c1ccc([N+](=O)[O-])o1)c1cccc(S(=O)(=O)N2CCOCC2)c1 | Sphingosine 1-phosphate receptor 3 (Homo sapiens) (UniProt Q99500) | inhibition | 8.39
Nc1cc(C(F)(F)F)ccc1N1CCOCC1 | Sphingosine 1-phosphate receptor 3 (Homo sapiens) (UniProt Q99500) | inhibition | 8.92
O=C(CCCl)Nc1ccc(S(=O)(=O)NCc2ccco2)cc1 | Sphingosine 1-phosphate receptor 3 (Homo sapiens) (UniProt Q99500) | inhibition | -8.65
CC(=O)NC(=S)NNC(=O)c1ccc(Br)cc1 | Sphingosine 1-phosphate receptor 3 (Homo sapiens) (UniProt Q99500) | inhibition | -11.1
CC(C)NC(=O)/C(C#N)=C\c1ccc(N(C)C)c(Br)c1 | Sphingosine 1-phosphate receptor 3 (Homo sapiens) (UniProt Q99500) | inhibition | -16.2
COc1ccc(NC(=O)CN2C(=O)CSC2=O)cc1 | Sphingosine 1-phosphate receptor 3 (Homo sapiens) (UniProt Q99500) | inhibition | 4.71
Cc1cccc2c1N(CCOc1ccccc1)C(=O)C2=O | Sphingosine 1-phosphate receptor 3 (Homo sapiens) (UniProt Q99500) | inhibition | -6.34
CCCN(c1ccc(C)cc1)c1nc(=O)c2cccnc2s1 | Sphingosine 1-phosphate receptor 3 (Homo sapiens) (UniProt Q99500) | inhibition | -4.79
C=CCN(c1ccccc1C(=O)NCC(=O)OCC)S(=O)(=O)c1ccc(C)cc1 | Sphingosine 1-phosphate receptor 3 (Homo sapiens) (UniProt Q99500) | inhibition | 3.85
COc1ccccc1Nc1nc(N)nc(CSC(=S)N2CCOCC2)n1 | Sphingosine 1-phosphate receptor 3 (Homo sapiens) (UniProt Q99500) | inhibition | 3
Cc1c(NC(=O)C(=O)N/N=C/c2cccs2)c(=O)n(-c2ccccc2)n1C | Sphingosine 1-phosphate receptor 3 (Homo sapiens) (UniProt Q99500) | inhibition | -2.98
CCN1/C(=C/c2ccc3ccc(C)cc3[n+]2CC)Sc2ccccc21 | Sphingosine 1-phosphate receptor 3 (Homo sapiens) (UniProt Q99500) | inhibition | 25.1
O=C(CN1CCCCC1)Nc1ccccc1Cl | Sphingosine 1-phosphate receptor 3 (Homo sapiens) (UniProt Q99500) | inhibition | -9.78
CC1C(=O)NC(=O)C1c1ccccc1 (stereo not drawn) | Sphingosine 1-phosphate receptor 3 (Homo sapiens) (UniProt Q99500) | inhibition | 5.96
CS(=O)(=O)c1ccc2nc(NC(=O)c3ccc(N4CCCC4=O)cc3)sc2c1 | Sphingosine 1-phosphate receptor 3 (Homo sapiens) (UniProt Q99500) | inhibition | -4.82
Cc1ccc(NC(=O)NNC(=O)c2sccc2-n2cccc2)cc1 | Sphingosine 1-phosphate receptor 3 (Homo sapiens) (UniProt Q99500) | inhibition | 8.38
Cc1ccc(S(=O)(=O)N(CC(=O)NN=C2CCN(C)CC2)c2ccc(F)cc2)cc1 | Sphingosine 1-phosphate receptor 3 (Homo sapiens) (UniProt Q99500) | inhibition | 4.23
CC(C)c1cc(NCc2ccccn2)n2c(nc3ccccc32)c1C#N | Sphingosine 1-phosphate receptor 3 (Homo sapiens) (UniProt Q99500) | inhibition | -17.9
S=C(NCc1ccco1)Nc1ccc2c(c1)OCCO2 | Sphingosine 1-phosphate receptor 3 (Homo sapiens) (UniProt Q99500) | inhibition | -9.96
CC(NCc1ccccc1OC1CCCC1)c1ccccc1 (stereo not drawn) | Sphingosine 1-phosphate receptor 3 (Homo sapiens) (UniProt Q99500) | inhibition | 3.22
Cn1c(-c2ccc(C(=O)c3ccccc3)s2)nc2ccccc21 | Sphingosine 1-phosphate receptor 3 (Homo sapiens) (UniProt Q99500) | inhibition | 59.9
COc1ccc(N2CCN(C(=S)Nc3ccc(S(N)(=O)=O)cc3)CC2)cc1 | Sphingosine 1-phosphate receptor 3 (Homo sapiens) (UniProt Q99500) | inhibition | 6.19
COc1cc(OC)cc(/C(N)=N/O)c1 | Sphingosine 1-phosphate receptor 3 (Homo sapiens) (UniProt Q99500) | inhibition | 9.29
CCOC(=O)CN(C(=O)COc1nc(-c2ccccc2)cc(C)c1C#N)c1ccc(F)cc1 | Sphingosine 1-phosphate receptor 3 (Homo sapiens) (UniProt Q99500) | inhibition | -12.8
Nc1ccc(SCCN2C(=O)c3ccccc3C2=O)cc1 | Sphingosine 1-phosphate receptor 3 (Homo sapiens) (UniProt Q99500) | inhibition | 91.7
CCN(CC)c1ccc2c(Nc3ccccc3)c(C=O)c(=O)oc2c1 | Sphingosine 1-phosphate receptor 3 (Homo sapiens) (UniProt Q99500) | inhibition | 6.07
O=C(Nc1ccccc1Cl)c1ccc2nsnc2c1 | Sphingosine 1-phosphate receptor 3 (Homo sapiens) (UniProt Q99500) | inhibition | 0.3
Cc1ccc(SCCN2C(=O)NC(C)(C)C2=O)cc1 | Sphingosine 1-phosphate receptor 3 (Homo sapiens) (UniProt Q99500) | inhibition | -2.4
COc1ccc(NS(=O)(=O)c2ccc(Oc3c(C#N)cccc3C#N)cc2)cc1 | Sphingosine 1-phosphate receptor 3 (Homo sapiens) (UniProt Q99500) | inhibition | 1.93
COc1cccc(Nc2nnc(SCC(=O)N3CC(=O)Nc4ccccc43)s2)c1 | Sphingosine 1-phosphate receptor 3 (Homo sapiens) (UniProt Q99500) | inhibition | 1.32
O=C(Cc1ccccc1)NCc1ccc(F)cc1 | Sphingosine 1-phosphate receptor 3 (Homo sapiens) (UniProt Q99500) | inhibition | -11
CCCCC(=O)NCc1ccc(F)cc1 | Sphingosine 1-phosphate receptor 3 (Homo sapiens) (UniProt Q99500) | inhibition | 6.82
COC(=O)CSc1nccc(-c2cccs2)n1 | Sphingosine 1-phosphate receptor 3 (Homo sapiens) (UniProt Q99500) | inhibition | -15.2
COC(=O)c1c(NC(C)=O)sc(C(=O)Nc2ccccc2OC)c1C | Sphingosine 1-phosphate receptor 3 (Homo sapiens) (UniProt Q99500) | inhibition | 6.94
O=S1(=O)CC/C(=N\Nc2ccc(F)cc2)c2ccsc21 | Sphingosine 1-phosphate receptor 3 (Homo sapiens) (UniProt Q99500) | inhibition | 3.45

Origin of measurements: PubChem BioAssay AID485
